Test system: 885512-296-R-J2-PDC complex spheroid viability;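 further: spheroids exposed to the compounds for one week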
Experiment: Anticancer human tumor 885512-296-R-J2-PDC patient-derived breast carcinoma cell line growth inhibition [GQUAD]
Conditions: second compound 1 µM; first compound 0.0316 µM; active compounds read low
Text: DNA G-quadruplex Stabilizer Agents in Combinations in Complex Spheroids A high-throughput screen of multi-cell type tumor spheroids was designed to identify active combinations of DNA G-quadruplex stabilizer agents and targeted small molecules. […] Compounds. […] If the clinical Cmax for an agent had not been determined, the highest concentration tested was 10 microM. […]
// NB: equality with 70% counts as false; only viability, T/C strictly below is true

MOLECULE	LABEL
O=C(c1cc(Cc2n[nH]c(=O)c3ccccc23)ccc1F)N1CCN(C(=O)C2CC2)CC1 + CN(C)c1ccc(Nc2c3ccc(NC(=O)CCN4CCCC4)cc3nc3cc(NC(=O)CCN4CCCC4)ccc23)cc1	false
COc1cccc2c1C(=O)c1c(O)c3c(c(O)c1C2=O)CC(O)(C(=O)CO)CC3OC1CC(N)C(O)C(C)O1 (stereo not given) + Cc1cnc(CNC(=O)c2c(=O)c3ccc(N4CCCN(C)CC4)nc3n3c2sc2ccccc23)cn1	true
CC(=O)O[C@H]1C(=O)[C@@]2(C)[C@H]([C@H](OC(=O)c3ccccc3)[C@]3(O)C[C@H](OC(=O)[C@H](O)[C@@H](NC(=O)c4ccccc4)c4ccccc4)C(C)=C1C3(C)C)[C@]1(OC(C)=O)CO[C@@H]1C[C@@H]2O + Cc1[nH]c2ccc(F)cc2c1-c1nc2c3cccnc3c3ncccc3c2[nH]1	true
CC1COCCN1c1cc(-c2ccnn2C)c2ccnc(-c3ccn[nH]3)c2n1 (stereo not given) + CN(C)c1ccc(Nc2c3ccc(NC(=O)CCN4CCCC4)cc3nc3cc(NC(=O)CCN4CCCC4)ccc23)cc1	true
COc1cccc2c1C(=O)c1c(O)c3c(c(O)c1C2=O)CC(O)(C(=O)CO)CC3OC1CC(N)C(O)C(C)O1 (stereo not given) + Cc1[nH]c2ccc(F)cc2c1-c1nc2c3cccnc3c3ncccc3c2[nH]1	true
C=CC(=O)N1CCN(c2nc(=O)n(-c3c(C)ccnc3C(C)C)c3nc(-c4c(O)cccc4F)c(F)cc23)C(C)C1 (stereo not given) + Cc1[nH]c2ccc(F)cc2c1-c1nc2c3cccnc3c3ncccc3c2[nH]1	false

Here's an entry: C=CC(=O)N1CCN(c2nc(=O)n(-c3c(C)ccnc3C(C)C)c3nc(-c4c(O)cccc4F)c(F)cc23)C(C)C1 (stereo not given) + Cc1cnc(CNC(=O)c2c(=O)c3ccc(N4CCCN(C)CC4)nc3n3c2sc2ccccc23)cn1 . Is its viability, T/C below 70%?
true

Is 70% strictly greater than the molecule's reported viability, T/C? molecule: CC[C@@]1(O)C(=O)OCc2c1cc1n(c2=O)Cc2cc3c(CN(C)C)c(O)ccc3nc2-1 + CN(C)c1ccc(Nc2c3ccc(NC(=O)CCN4CCCC4)cc3nc3cc(NC(=O)CCN4CCCC4)ccc23)cc1
true

Hello, I'm reviewing records and need to know if viability, T/C of CC(C)(O)C1CCC(Nc2ccc3ncc(-c4cccc(C(F)(F)F)c4)n3n2)CC1 (stereo not given) + CN(C)c1ccc(Nc2c3ccc(NC(=O)CCN4CCCC4)cc3nc3cc(NC(=O)CCN4CCCC4)ccc23)cc1 is below 70%. Could you check?
false
